Tested on: M14 melanoma
PROTOCOL_NOTES: NCI-60 one-dose screen, 48 h (100 = growth as untreated, 0 = no growth, -100 = all killed)
COND: 10 µM unless noted
This is part of a sample that, as a whole, favours compounds with a hit. Of some 83,000 tested, about 20% had one in any assay.
Exercise: for every item that follows, state its recorded growth.
Use % as the unit, but write only the number.

Recorded growth for `CN1C(=O)/C(=C/c2ccc(C(=O)Nc3ncc(Cc4cccc(Cl)c4)s3)cc2)SC1=S` with M14 melanoma, please?
17

GET /values?readout=growth&system=M14 melanoma&item= `CCN1C2CCC1/C(=C\c1ccc(F)cc1)C(=O)/C2=C/c1ccc(F)cc1`
35.9

State its growth on M14 melanoma: `Cc1cccc(-c2nc(Nc3ccc4ncsc4c3)c3ccccc3n2)n1`
64

Missing value: growth, M14 melanoma, entry `COc1cc(OC)cc(-c2ccc(-c3ccc(C(=N)N)o3)o2)c1` . Fill in?
25.1

Which growth is reported with M14 melanoma for this entry: `CN(C)CCN1C(=O)c2cccc3c(/C=C/CN4C(=O)c5cccc6cccc(c56)C4=O)ccc(c23)C1=O` ?
77.9

Recall the recorded growth for `NC(=O)c1c(NC(=O)c2cccs2)sc2c1CCC(=O)C2` with M14 melanoma and state it.
26.1

###

Kindly state growth for each of the entries shown.
System: MALME-3M melanoma
PROTOCOL_NOTES: NCI-60 one-dose screen, 48 h (100 = growth as untreated, 0 = no growth, -100 = all killed)
COND: 10 µM unless noted
The panel holds about 83,000 compounds, 20% with a hit somewhere; the sample as a whole holds those more often.
Just the number please, in %, no unit attached.

Hi! What's the reported growth for `CN(Cc1cc(Br)cc(Br)c1O)Cc1cc(Br)cc(Br)c1O` on MALME-3M melanoma?
73.2

MALME-3M melanoma / growth / `COc1ccc(C(=O)Cn2c(C(=O)c3ccc(Cl)cc3)nc3ccccc32)cc1` : value?
70.7

What is its growth for MALME-3M melanoma? Entry: `O=C(Nc1ncc(Cc2ccccc2)s1)c1ccc2c(c1)OCCCO2`
51

For MALME-3M melanoma, provide growth of `Cc1ccc2c(-c3nnc(N)s3)cc(=O)oc2c1C` please.
104

Please provide the recorded growth for `O=C(CSc1nnc(-c2cc(-c3ccccc3)nc3ccccc23)n1-c1ccccc1)Nc1ccc(C(=O)/C=C/c2ccc(Cl)cc2)cc1` , tested on MALME-3M melanoma.
99.5

Hi! What's the reported growth for `COc1ccc(Cn2cc3c(c2-c2ccccc2)CCc2cnoc2-3)cc1` on MALME-3M melanoma?
70.2

For MALME-3M melanoma, provide growth of `Cc1ccc(CNc2c3ccccc3nc3ccccc23)cc1` please.
16.2

###

System: HOP-92 NSCLC
PROTOCOL_NOTES: NCI-60 one-dose screen, 48 h (100 = growth as untreated, 0 = no growth, -100 = all killed)
COND: 10 µM unless noted
Procedure: Growth inhibition of the HOP-92 human Non-Small Cell Lung tumor cell line is measured as a screen for anti-cancer activity. Cells are grown in 96 well plates and exposed to the test compound for 48 hours. Compounds are tested at a single concentration, which is 10^-5 M for most compounds. The reported endpoint is percent growth (GI% or GIPRCNT), where numbers from 0 - 100% represent growth inhibition, and numbers from -100% - 0 represent cell death. […]
About 83,000 compounds went through this panel and 20% of them were active in at least one assay; those are over-represented in the sample as a whole.
MEASURED_QUANTITY: growth (%)
Express your answer in %, writing the number without its unit.

Fill in: growth of `C=CCC(CCCC)(C(=O)OCC)C(=O)OCC` is ___
96.2

Requested field: growth. Item: C=CCOC(=O)C1=C(C)N(CC)C(=O)NC1c1c(Cl)n(C)c2ccccc12 (stereo unspecified)
68.1

Fill blank: measured growth of the molecule Nc1nc(N)c2c(n1)NC(c1cccc(Nc3ccnc4cc(C(F)(F)F)ccc34)c1)CC(c1ccccc1)=N2 (stereo unspecified) is ____.
45

Which measured growth value corresponds to `Clc1ccccc1-c1cnn2cc(-c3ccccc3)cnc12` ?
82.9

Request the reported growth associated with `Cc1ccc(CNc2c3ccccc3nc3ccccc23)cc1`
3.24

Requested field: growth. Item: `Cc1cc2c(cc1C)N(C(=O)CCl)CC(=O)N2`
93.4

Tell me the measured growth of `O=C(O)COc1ccc(Cl)c(Cl)c1` , please.
90.2

Record request: growth value, item `COc1cccc(C(=O)NNc2nc(Cl)nc(Cl)n2)c1`
98.3

Return reported growth; argument: `CC1(C)CC[C@]2(C(=O)N[C@H](CO)Cc3ccccc3)CC[C@]3(C)C(=CC[C@@H]4[C@@]5(C)CCCNC(C)(C)[C@@H]5CC[C@]43C)[C@@H]2C1`
26.4

I am curious: what growth value has been reported for `CC1=C2[C@@H](CC1)[C@]1(C)O[C@@](c3ccccc3)(C[C@H]1OC(=O)CO)[C@H]2OC(=O)/C=C/c1ccccc1` ?
96.2

Requested field: growth. Item: `COc1ccc(Cn2cc3c(c2-c2ccccc2)CCc2cnoc2-3)cc1`
52.2

Fill blank: measured growth of the molecule `COc1ccc(-c2nn(-c3ccccc3)cc2/C=C/C(=O)NNC(=O)Nc2ccc(C)cc2)cc1` is ____.
102

For the molecule shown here, `CC1(C)CC[C@]2(CO)CC[C@]3(C)[C@H](CC[C@@H]4[C@@]5(C)CCCNC(C)(C)[C@@H]5CC[C@]43C)[C@H]2[C@H]1O` , give the reported growth.
83.8

Give its growth value. Item: CC1=C(C(=O)Nc2ccccc2)C(c2ccc3c(c2)OCO3)NC(=S)N1 (stereo unspecified)
112

# growth lookup, item `COc1cnc2c(c1)C(=O)c1c-2n(CCCCl)c(=O)c2ccncc12`
110

Consider the molecule shown here: `Fc1ccc2[nH]cc(-c3nc(-c4c[nH]c5ccncc45)cs3)c2c1` What is its recorded growth?
28.6

Fill blank: measured growth of the molecule `COc1ccc(/C=C(/c2ccccc2)[N+](=O)[O-])c(OC)c1` is ____.
-25.4

Need growth of `C=C(C)[C@@H]1CC[C@]2(C(=O)N3CCN(C)CC3)CC[C@]3(C)[C@H](CC[C@@H]4[C@@]5(C)CC[C@H](OC(=O)c6ccccc6C(=O)O)C(C)(C)[C@@H]5CC[C@]43C)[C@@H]12` , thanks.
102

Look up growth for this molecule: `O=C1/C(=C\c2ccccn2)c2ccccc2N1c1c(Cl)cccc1Cl`
-7.93

// returns reported growth for input `CN(C)CCCNC(=O)c1cncnc1Nc1ccc(OCc2cccc(F)c2)c(Cl)c1`
24.6

Which growth is listed for `COc1cc2nc3sc(C(=O)Nc4ccc(C(=O)OC(C)C)cc4)c(C(=O)Nc4ccc(Cl)cc4C)n3c(=O)c2cc1OC` ?
32.5

Source of measurements: PubChem BioAssay (NCI)
